Measured relative IC50 by item
# Tested on: HSC2
# PROTOCOL_TEXT: relative IC50 (inflection point of fitted dose-response curve, CellTox-Green cytotoxicity, 72 h; top asymptote may be below 50%); higher = less potent

Recorded relative IC50, per entry:
O=C(O)c1ccc(-c2c[nH]c3ncc(-c4ccccc4)cc23)cc1C1CCCC1	> 10 µM
C[C@@H]1CCN(C(=O)CC#N)C[C@@H]1N(C)c1ncnc2[nH]ccc12 [Tofacitinib]	> 5 µM
C[C@H]1C=C2C(=O)O[C@H]3CC[C@@H](C1)[C@@]23O [Galiellalactone]	> 50 µM
CO[C@H]1C[C@@H]2CC[C@@H](C)[C@@](O)(O2)C(=O)C(=O)N2CCCC[C@H]2C(=O)O[C@H]([C@H](C)C[C@@H]2CC[C@@H](OCCO)[C@H](OC)C2)CC(=O)[C@H](C)/C=C(\C)[C@@H](O)[C@@H](OC)C(=O)[C@H](C)C[C@H](C)/C=C/C=C/C=C/1C [Everolimus]	> 0.1 µM
COc1cc2c(N3CCN(C(=O)Nc4ccc(OC(C)C)cc4)CC3)ncnc2cc1OCCCN1CCCCC1 [Tandutinib]	> 1 µM
Nc1cccc2c1C(=O)N(C1CCC(=O)NC1=O)C2=O (configuration not stated) [Pomalidomide]	> 10 µM

Let us move to another entry and its relative IC50.
Field request: relative IC50 | item: COc1cc2ncnc(Nc3ccc(F)c(Cl)c3)c2cc1OCCCN1CCOCC1 [Gefitinib]
> 10 µM
